All figures here come from ChEMBL document CHEMBL1144986.

Target: 5-hydroxytryptamine receptor 7 (Homo sapiens)
Sequence (P34969 whole entry): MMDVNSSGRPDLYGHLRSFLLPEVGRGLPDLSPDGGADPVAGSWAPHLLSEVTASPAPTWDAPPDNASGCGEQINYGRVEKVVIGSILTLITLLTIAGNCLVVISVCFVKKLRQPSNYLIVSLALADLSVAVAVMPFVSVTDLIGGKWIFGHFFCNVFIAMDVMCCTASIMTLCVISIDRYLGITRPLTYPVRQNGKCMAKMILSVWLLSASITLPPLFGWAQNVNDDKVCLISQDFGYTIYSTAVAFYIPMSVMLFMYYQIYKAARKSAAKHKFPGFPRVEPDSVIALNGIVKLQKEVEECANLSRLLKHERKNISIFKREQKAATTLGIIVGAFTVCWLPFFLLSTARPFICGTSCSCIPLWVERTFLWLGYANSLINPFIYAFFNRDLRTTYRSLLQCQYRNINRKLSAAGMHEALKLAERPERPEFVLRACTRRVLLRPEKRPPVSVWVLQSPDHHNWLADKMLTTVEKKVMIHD
parameterMeasured: pKi
Please express pKi as -log10 of the molar concentration.

- chemicalSmiles: "COc1ccc2[nH]c3c(c2c1)CCN=C3C"
  assayedTarget: "5-hydroxytryptamine receptor 7 (Homo sapiens)"
  parameterMeasured: "pKi"
  reported: 5.53
- chemicalSmiles: "COc1ccc2c3c([nH]c2c1)CNCC3"
  assayedTarget: "5-hydroxytryptamine receptor 7 (Homo sapiens)"
  parameterMeasured: "pKi"
  reported: 5.85
- chemicalSmiles: "COc1ccc2c(c1)[nH]c1c(C)nccc12"
  assayedTarget: "5-hydroxytryptamine receptor 7 (Homo sapiens)"
  parameterMeasured: "pKi"
  reported: 5.26

Consider the additional compound presented here.
Ask | Recall the recorded pKi for "CC1=NCCc2c1[nH]c1ccccc21" with 5-hydroxytryptamine receptor 7 (Homo sapiens) and state it.
Reply | 6.55

* * *

Target: Alpha-2B adrenergic receptor (Homo sapiens, UniProt P18089)
Sequence (P18089 whole entry): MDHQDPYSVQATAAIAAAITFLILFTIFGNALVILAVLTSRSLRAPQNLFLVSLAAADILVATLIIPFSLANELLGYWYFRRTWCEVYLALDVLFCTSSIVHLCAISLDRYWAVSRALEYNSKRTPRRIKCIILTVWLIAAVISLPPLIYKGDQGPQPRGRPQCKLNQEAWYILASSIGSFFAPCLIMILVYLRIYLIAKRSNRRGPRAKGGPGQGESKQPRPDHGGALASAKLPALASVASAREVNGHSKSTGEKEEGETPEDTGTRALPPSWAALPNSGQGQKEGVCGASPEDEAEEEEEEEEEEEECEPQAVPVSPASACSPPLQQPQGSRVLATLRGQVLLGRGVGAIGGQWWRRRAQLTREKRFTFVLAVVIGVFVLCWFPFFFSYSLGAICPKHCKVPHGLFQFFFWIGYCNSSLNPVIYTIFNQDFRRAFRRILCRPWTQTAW
parameterMeasured: pKi
The value called pKi is obtained by taking minus log10 of the concentration in mol/L.

- chemicalSmiles: "COc1ccc2c(c1)[nH]c1c(C)nccc12"
  parameterMeasured: "pKi"
  reported: 5.95

Query molecule follows.
Ask | Please look up its pKi: "COc1ccc2c3c([nH]c2c1)CNCC3"
Reply | 6.85

* * *

Molecular target: 5-hydroxytryptamine receptor 2C (Rattus norvegicus)
Sequence (P08909 whole entry): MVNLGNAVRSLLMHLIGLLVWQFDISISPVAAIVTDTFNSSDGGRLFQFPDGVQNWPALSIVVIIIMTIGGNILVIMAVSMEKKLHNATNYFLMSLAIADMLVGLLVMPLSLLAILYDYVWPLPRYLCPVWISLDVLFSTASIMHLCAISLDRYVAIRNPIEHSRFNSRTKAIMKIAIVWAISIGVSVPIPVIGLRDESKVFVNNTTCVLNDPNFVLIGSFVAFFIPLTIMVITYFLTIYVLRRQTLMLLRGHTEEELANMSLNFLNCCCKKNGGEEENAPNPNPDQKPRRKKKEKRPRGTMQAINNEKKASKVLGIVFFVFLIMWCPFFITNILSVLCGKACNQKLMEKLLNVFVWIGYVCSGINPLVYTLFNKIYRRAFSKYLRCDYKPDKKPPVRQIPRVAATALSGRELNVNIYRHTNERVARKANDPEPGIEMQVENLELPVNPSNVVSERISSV
# key: entry, value: pKi
pKi is defined as minus the log10 of a concentration measured in mol/L.

- chemicalSmiles: "COc1cccc2[nH]c3c(c12)CCN=C3"
  assayedTarget: "5-hydroxytryptamine receptor 2C (Rattus norvegicus)"
  pKi: 7.12

Ask | # lookup: pKi of "C1=NCCc2c1[nH]c1ccccc21"
Reply | 5.96

Ask | Can you share its pKi? I mean this compound: "C1=NCCc2c1[nH]c1cccc(OCc3ccccc3)c21"
Reply | 6.70

Ask | Bench note: what pKi did "CC1=NCCc2c1[nH]c1cccc(OC(C)C)c21" show?
Reply | 7.59
